Source of measurements: patent US7511041B2

The reader will find reported melting point values listed item by item below.
Where a name gives a salt, the structure may show the parent alone.

Known results for compounds:
>  <compound>
COc1ccc(C(=O)NC2=Nc3ccccc3C3=NCCN23)c(OC)n1 [Example 2-286]

>  <melting point>
244 to 245 °C

$$$$
>  <compound>
Cl.O/C(=C\C1=Nc2c(F)cccc2C2=NCCN12)c1cccnc1 [Example 1-70]

>  <melting point>
218 °C

$$$$
>  <compound>
O/C(=C\C1=Nc2ccccc2C2=NCCN12)c1ccc[nH]1 [Example 1-150]

>  <melting point>
247 °C

$$$$
>  <compound>
OCCCOc1cccc2c1N=C(/C=C(\O)c1cccnc1)N1CCN=C21 [Example 1-92]

>  <melting point>
203 to 205 °C

$$$$
>  <compound>
O=C(NC1=Nc2ccccc2C2=NCCN12)c1cccnc1 (as salt: hydrochloride) [Example 2-2]

>  <melting point>
289 °C (dec.)

$$$$
>  <compound>
Cl.O/C(=C\C1=Nc2ccccc2C2=NCCN12)c1nccs1 [Example 1-155]

>  <melting point>
> 300 °C

$$$$
>  <compound>
Cc1ccc2c(c1)N=C(NC(=O)c1ccc3[nH]cnc3c1)N1CCN=C21 [Example 2-29]

>  <melting point>
190 °C

$$$$
>  <compound>
Cc1nc(N)ccc1C(=O)NC1=Nc2ccccc2C2=NCCN12.Cl [Example 2-158]

>  <melting point>
289 °C (dec.)

$$$$

// melting point lookup, compound = O=C(NC1=Nc2ccccc2C2=NCCN12)C1CCCCN1C(=O)OCc1ccccc1 (stereo not drawn) [Example 2-337] , result: 119 to 120 °C

// melting point lookup, compound = Cl.Cn1cnc2cc(C(=O)NC3=Nc4ccccc4C4=NCCN34)ccc21 [Example 2-167] , result: 333 °C (dec.)

// melting point lookup, compound = O/C(=C\C1=Nc2ccccc2C2=NCCN12)c1cc[nH]c1 [Example 1-151] , result: 247 to 249 °C

// melting point lookup, compound = Cc1ccc(C(=O)NC2=Nc3ccccc3C3=NCCN23)cn1.Cl [Example 2-148] , result: 310 °C (dec.)

// melting point lookup, compound = CN1CCN(c2ccc(C(=O)NC3=Nc4ccccc4C4=NCCN34)cc2)CC1 [Example 2-261] , result: 218 to 222 °C

----------
The reader will find reported pIC50 values listed item by item below.
molecular target: Recombinant human PI3Kγ (full length human PI3K p110γ) (Homo sapiens, UniProt P48736); construct: full length human PI3K p110γ fused with a His6-tag at the C-terminus; His6 (C); purchased ALEXIS BIOCHEMICALS #201-055-C010; host or cells: S. frugiperda 9 insect cells; experiment: Kinase assay of PI3Kγ (solid-phase lipid kinase assay); format: biochemical; settings: Table 1, isozyme not given; read-out: in vitro
Sequence (P48736 whole entry, the tested form may be a part): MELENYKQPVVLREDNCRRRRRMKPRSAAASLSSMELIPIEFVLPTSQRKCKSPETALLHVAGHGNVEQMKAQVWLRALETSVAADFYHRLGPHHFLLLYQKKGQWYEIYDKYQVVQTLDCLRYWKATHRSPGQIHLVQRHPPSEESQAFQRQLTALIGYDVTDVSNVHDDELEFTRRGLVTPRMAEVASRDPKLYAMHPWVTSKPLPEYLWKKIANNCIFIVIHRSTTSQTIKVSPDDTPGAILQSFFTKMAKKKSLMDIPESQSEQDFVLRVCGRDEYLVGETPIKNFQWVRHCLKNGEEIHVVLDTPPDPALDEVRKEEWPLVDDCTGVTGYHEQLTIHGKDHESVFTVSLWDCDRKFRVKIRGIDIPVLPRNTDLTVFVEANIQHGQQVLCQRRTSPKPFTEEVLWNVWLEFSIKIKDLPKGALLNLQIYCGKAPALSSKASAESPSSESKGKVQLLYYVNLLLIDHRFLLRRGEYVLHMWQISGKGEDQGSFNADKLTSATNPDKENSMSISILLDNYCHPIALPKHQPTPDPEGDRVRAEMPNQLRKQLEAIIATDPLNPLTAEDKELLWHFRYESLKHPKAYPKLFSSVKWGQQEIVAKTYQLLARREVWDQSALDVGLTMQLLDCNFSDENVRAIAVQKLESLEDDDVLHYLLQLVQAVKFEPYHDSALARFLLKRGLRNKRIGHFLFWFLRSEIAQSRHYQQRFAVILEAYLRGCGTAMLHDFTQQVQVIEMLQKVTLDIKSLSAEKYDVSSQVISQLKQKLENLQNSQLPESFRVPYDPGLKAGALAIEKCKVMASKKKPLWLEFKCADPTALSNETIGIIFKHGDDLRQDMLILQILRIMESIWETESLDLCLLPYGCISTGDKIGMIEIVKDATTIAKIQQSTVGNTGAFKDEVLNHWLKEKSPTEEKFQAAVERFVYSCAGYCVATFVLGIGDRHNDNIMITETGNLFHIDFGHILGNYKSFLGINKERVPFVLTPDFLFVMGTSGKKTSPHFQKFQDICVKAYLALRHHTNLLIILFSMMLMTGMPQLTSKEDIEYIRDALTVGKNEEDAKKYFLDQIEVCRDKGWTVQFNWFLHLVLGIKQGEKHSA
pIC50: −log10 of the molar value.

Known results for compounds:
>  <compound>
O/C(=C\C1=Nc2cc(Cl)ccc2C2=NCCN12)c1cccnc1

>  <pIC50>
6.30 to 7.00

$$$$
>  <compound>
O/C(=C\C1=Nc2ccccc2C2=NCCN12)c1ccco1

>  <pIC50>
6.30 to 7.00

$$$$
>  <compound>
COc1cc2c(cc1OC)C1=NCCN1C(/C=C(\O)c1cccc(Cl)c1)=N2

>  <pIC50>
< 5.70

$$$$

// pIC50 lookup, compound = Cl.O/C(=C\C1=Nc2cc(N3CCCC(O)C3)ccc2C2=NCCN12)c1ccc2[nH]cnc2c1 (centres unmarked) , result: > 7.00

// pIC50 lookup, compound = COc1cc2c(cc1OC)C1=NCCN1C(/C=C(\O)c1ccccc1)=N2 , result: 5.70 to 6.30

// pIC50 lookup, compound = COc1c(OCC(N)=O)ccc2c1N=C(/C=C(\O)c1cccnc1)N1CCN=C21 , result: > 7.00

// pIC50 lookup, compound = O=C(NCCc1ccc2c(n1)N=C(/C=C(\O)c1cccnc1)N1CCN=C21)N1CCCCC1 , result: 6.30 to 7.00

// pIC50 lookup, compound = COc1cc2c(cc1OC)C1=NCCN1C(/C=C(\O)c1cccs1)=N2 , result: 6.30 to 7.00

// pIC50 lookup, compound = COc1c(OCC2CC2)ccc2c1N=C(/C=C(\O)c1cccnc1)N1CCN=C21 , result: 6.30 to 7.00

// pIC50 lookup, compound = O=[N+]([O-])c1cccc(/C(O)=C/C2=Nc3ccccc3C3=NCCN23)c1 , result: < 5.70

----------
The reader will find reported melting point values listed item by item below.

>  <compound structure>
O=C(NC1=Nc2ccccc2C2=NCCN12)c1ccoc1

>  <melting point>
217 to 218 °C

$$$$

// melting point lookup, compound = Cc1ccsc1C(=O)NC1=Nc2ccccc2C2=NCCN12.Cl , result: > 250 °C

// melting point lookup, compound = COc1ccc2c(c1OCCN1CCOCC1)N=C(/C=C(\O)c1cccnc1)N1CCN=C21 , result: 197 °C

// melting point lookup, compound = Cl.O=C(NC1=Nc2ccccc2C2=NCCN12)c1cnc2[nH]cnc2c1 , result: 287 °C (dec.)

// melting point lookup, compound = Cl.O=C(NC1=Nc2c(Cl)cccc2C2=NCCN12)c1ccc2[nH]cnc2c1 , result: > 280 °C

----------
reported property: melting point

>  <compound structure>
COc1cc2c(cc1OC)C1=NCCN1C(/C=C(\O)c1ccc(NCCO)nc1)=N2

>  <melting point>
207 °C

$$$$
>  <compound structure>
O=C(NC1=Nc2ccccc2C2=NCCN12)c1ccc(Cl)cc1

>  <melting point>
226 to 228 °C

$$$$

// melting point lookup, molecule = COc1c(C)cc(C(=O)NC2=Nc3ccccc3C3=NCCN23)cc1C , result: 216 to 218 °C

// melting point lookup, molecule = Cl.O/C(=C\C1=Nc2cc(CN3CCOCC3)ccc2C2=NCCN12)c1cccnc1 , result: 242 °C

// melting point lookup, molecule = COc1cccc2c1N=C(NC(=O)c1cccnc1C)N1CCN=C21.Cl , result: 251 °C (dec.)

// melting point lookup, molecule = Cl.O/C(=C\C1=Nc2cc(N3CCOCC3)ccc2C2=NCCN12)c1ccc2[nH]cnc2c1 , result: 286 °C (dec.)

// melting point lookup, molecule = O/C(=C\C1=Nc2ccccc2C2=NCCN12)c1ccncc1 , result: 204 to 205 °C

// melting point lookup, molecule = COc1cc2c(cc1OC)C1=NCCN1C(NC(=O)c1cncc(C)c1)=N2.Cl , result: 257 °C (dec.)

// melting point lookup, molecule = CC(=O)Nc1ccc(/C(O)=C/C2=Nc3cc(CN4CCOCC4)ccc3C3=NCCN23)cn1 , result: 245 °C

// melting point lookup, molecule = Cc1nc2ncccc2cc1C(=O)NC1=Nc2ccccc2C2=NCCN12.Cl , result: 270 °C (dec.)

// melting point lookup, molecule = Cl.NCC(=O)Oc1ccc2c(c1)C1=NCCN1C(/C=C(\O)c1cccnc1)=N2 , result: > 300 °C

// melting point lookup, molecule = CN(C)CCCOc1cccc2c1N=C(/C=C(\O)c1cccnc1)N1CCN=C21 , result: 235 °C (dec.)

// melting point lookup, molecule = COc1c(OCC(=O)NC(C)C)ccc2c1N=C(/C=C(\O)c1cccnc1)N1CCN=C21.Cl , result: 245 °C (dec.)

// melting point lookup, molecule = O=C(NC1=Nc2ccccc2C2=NCCN12)C1CCCCC1 , result: 170 to 172 °C

// melting point lookup, molecule = O=C(NC1=Nc2ccccc2C2=NCCN12)c1ccc(Cl)cc1.O=C(O)C(F)(F)F , result: 243 to 245 °C

// melting point lookup, molecule = C[C@@H]1CN=C2c3ccccc3N=C(NC(=O)c3cccnc3)N21.Cl , result: 270 °C (dec.)

// melting point lookup, molecule = COc1cc(OC)c2c(c1)C1=NCCN1C(NC(=O)c1cccnc1)=N2 , result: 228 °C (dec.)

// melting point lookup, molecule = COc1c(OCCO)ccc2c1N=C(/C=C(\O)c1cccnc1)N1CCN=C21 , result: 264 to 265 °C

----------
The reader will find reported melting point values listed item by item below.

Known results for compounds:
>  <compound structure>
O=C(COc1ccccc1)NC1=Nc2ccccc2C2=NCCN12

>  <reported property>
melting point

>  <result>
149 to 150 °C

$$$$
>  <compound structure>
O/C(=C\C1=Nc2ccccc2C2=NCCN12)c1ccco1

>  <reported property>
melting point

>  <result>
192 °C

$$$$
>  <compound structure>
O/C(=C\C1=Nc2cc(N3CCOCC3)ccc2C2=NCCN12)c1cccnc1

>  <reported property>
melting point

>  <result>
282 °C

$$$$
>  <compound structure>
Cl.O=C(NC1=Nc2cc(Br)ccc2C2=NCCN12)c1ccc2[nH]cnc2c1

>  <reported property>
melting point

>  <result>
278 °C

$$$$
>  <compound structure>
COc1c(C)ccc2c1N=C(/C=C(\O)c1ccc3[nH]cnc3c1)N1CCN=C21

>  <reported property>
melting point

>  <result>
> 285 °C

$$$$

// melting point lookup, compound = O=C(NC1=Nc2ccccc2C2=NCCN12)c1c[nH]cn1 , result: 265 °C (dec.)
